Target: human ETB receptor (Homo sapiens, UniProt P24530)
Construct: expressed in transfected cells; host or cells: COS7 cells
Sequence (P24530 27-442): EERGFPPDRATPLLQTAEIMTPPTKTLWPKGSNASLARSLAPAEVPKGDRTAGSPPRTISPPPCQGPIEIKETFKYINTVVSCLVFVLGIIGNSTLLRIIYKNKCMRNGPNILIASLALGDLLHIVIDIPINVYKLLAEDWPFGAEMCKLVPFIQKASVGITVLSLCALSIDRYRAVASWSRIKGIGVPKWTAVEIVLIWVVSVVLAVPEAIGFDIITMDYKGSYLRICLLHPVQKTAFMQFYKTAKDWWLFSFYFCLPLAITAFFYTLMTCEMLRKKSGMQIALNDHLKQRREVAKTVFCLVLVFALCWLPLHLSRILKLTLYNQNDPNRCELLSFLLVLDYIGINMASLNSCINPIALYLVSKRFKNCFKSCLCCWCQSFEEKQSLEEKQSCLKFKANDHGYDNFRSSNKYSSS
Assay: Binding Test #2: inhibition of 125I-ET-1 binding to ETB receptors (transfected COS7 cell membranes)
Settings: Table 1; incubation at 4° C.; read-out: ETB
# pIC50 per entry
# log scale: pIC50 equals minus log10 of the concentration in mol/L

Ask | Supply pIC50 value. Item: `Cc1noc(NS(=O)(=O)c2cc(Br)c(Cl)s2)c1Br`
Reply | 5.57

Ask | Supply pIC50 value. Item: `Cc1noc(NS(=O)(=O)c2ccc(S(=O)(=O)c3ccccc3)s2)c1Br`
Reply | 6.48

Ask | Supply pIC50 value. Item: `Cc1noc(NS(=O)(=O)c2ccc(-c3cccs3)s2)c1Br`
Reply | 6.44

Ask | Supply pIC50 value. Item: `Cc1noc(NS(=O)(=O)c2cc3ccccc3s2)c1C`
Reply | 4.95

Ask | Supply pIC50 value. Item: `Cc1noc(NS(=O)(=O)c2c(C)sc3ccccc23)c1Br`
Reply | 5.46

Ask | Supply pIC50 value. Item: `Cc1noc(NS(=O)(=O)c2sc3ccc(Cl)cc3c2C)c1Br`
Reply | 5.79

Ask | Supply pIC50 value. Item: `Cc1noc(NS(=O)(=O)c2ccc(-c3ccccc3)s2)c1C`
Reply | 5.89

Ask | Supply pIC50 value. Item: `Cc1noc(NS(=O)(=O)c2sccc2CCc2ccccc2)c1Br`
Reply | 4.97
